Where do these numbers come from? They come from patent US20250034112A1.

- ASSAYED_SYSTEM: WT JAK2 JH2 (Homo sapiens (Human), UniProt O60674, F794H/W659A/W777A)
- Sequence (O60674 536-812 W659A/W777A/F794H): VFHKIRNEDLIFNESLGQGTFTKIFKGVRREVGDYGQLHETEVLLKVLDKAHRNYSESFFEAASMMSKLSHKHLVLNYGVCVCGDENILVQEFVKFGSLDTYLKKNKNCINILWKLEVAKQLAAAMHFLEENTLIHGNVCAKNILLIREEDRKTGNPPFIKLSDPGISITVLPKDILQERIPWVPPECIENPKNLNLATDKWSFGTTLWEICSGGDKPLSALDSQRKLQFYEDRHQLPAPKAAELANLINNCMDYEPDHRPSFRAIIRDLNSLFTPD
- TEST_DETAILS: Competitive fluorescence polarization (FP) binding assay, WT JAK2 JH2

| STRUCTURE_STRING | ASSAYED_SYSTEM | Kd (nM) |
| --- | --- | --- |
| Nc1nc(Nc2ccc(S(N)(=O)=O)cc2)nn1C(=O)Nc1ccc(-c2ccnc(C(=O)O)c2)cc1 | WT JAK2 JH2 (Homo sapiens (Human), UniProt O60674, F794H/W659A/W777A) | 394 |
| Nc1nc(Nc2ccc(S(N)(=O)=O)cc2)nn1C(=O)Nc1ccc(-c2cncc(C(=O)O)c2)cc1 | WT JAK2 JH2 (Homo sapiens (Human), UniProt O60674, F794H/W659A/W777A) | 652 |
| Nc1nc(Nc2ccc(S(N)(=O)=O)cc2)nn1C(=O)Nc1ccc(-c2cccc(C(=O)O)n2)cc1 | WT JAK2 JH2 (Homo sapiens (Human), UniProt O60674, F794H/W659A/W777A) | 934 |
| CNC(=O)c1ccc(Nc2nc(N)n(C(=O)Nc3ccc(-c4cc(OCc5ccccc5)cc(C(=O)O)c4)cc3)n2)cc1 | WT JAK2 JH2 (Homo sapiens (Human), UniProt O60674, F794H/W659A/W777A) | 44 |
| Nc1nc(Nc2ccc(S(N)(=O)=O)cc2)nn1C(=O)Nc1ccc(-c2cc(OCc3ccccc3)cc(C(=O)O)c2)cc1 | WT JAK2 JH2 (Homo sapiens (Human), UniProt O60674, F794H/W659A/W777A) | 75 |

----------
- TEST_DETAILS: in vitro
- REPORTED_CONDITIONS: PAMPA

| STRUCTURE_STRING | Permeability in PAMPA (in words) |
| --- | --- |
| Nc1nc(Oc2ccc(NC(=O)NCC(=O)O)cc2)c2cc[nH]c2n1 | essentially impermeable |
| Nc1nc(Oc2ccc(NC(=O)N[C@@H](Cc3ccccc3)C(=O)O)cc2)c2cc[nH]c2n1 | essentially impermeable |
| COC(=O)[C@H](CC(=O)c1ccccc1)NC(=O)Nc1ccc(Oc2nc(N)nc3[nH]ccc23)cc1 | impermeable |
| Nc1nc(Oc2ccc(NC(=O)NCCC(=O)O)cc2)c2cc[nH]c2n1 | essentially impermeable |
| Nc1nc(Oc2ccc(NC(=O)N[C@@H](CCc3ccccc3)C(=O)O)cc2)c2cc[nH]c2n1 | impermeable |

----------
Papp values, listed per item
- TEST_DETAILS: in vitro
- REPORTED_CONDITIONS: PAMPA

| COMPOUND | Papp, ×10⁻⁶ cm/s |
| --- | --- |
| O=C(O)Cc1ccccc1Nc1c(Cl)cccc1Cl [diclofenac, reference compound] | 3.08 |
| COC(=O)[C@H](CCc1ccccc1)NC(=O)Nc1ccc(Oc2nc(N)nc3[nH]ccc23)cc1 | 3.57 |
